system-tested: T1, mouse Ang2 (Accession # NP-031452) (R&D Systems) (mouse, UniProt O35608 19-496, limits assumed)
T1 construct: Bought protein; also called mAng2
T1 sequence (looked up): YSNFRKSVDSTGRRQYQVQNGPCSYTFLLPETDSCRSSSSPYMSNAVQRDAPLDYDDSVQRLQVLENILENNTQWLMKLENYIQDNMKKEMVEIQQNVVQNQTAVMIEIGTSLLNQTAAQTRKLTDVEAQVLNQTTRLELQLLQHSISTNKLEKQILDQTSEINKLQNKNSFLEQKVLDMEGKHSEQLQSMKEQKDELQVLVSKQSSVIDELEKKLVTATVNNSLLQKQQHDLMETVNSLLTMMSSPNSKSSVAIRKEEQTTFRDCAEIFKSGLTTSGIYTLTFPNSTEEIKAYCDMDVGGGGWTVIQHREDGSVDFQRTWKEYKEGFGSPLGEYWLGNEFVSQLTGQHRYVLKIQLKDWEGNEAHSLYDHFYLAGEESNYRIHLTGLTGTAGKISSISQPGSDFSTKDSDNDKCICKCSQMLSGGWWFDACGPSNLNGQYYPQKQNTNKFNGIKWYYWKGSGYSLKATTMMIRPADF
experimental-details: ELISA, antigen coated, scFv, anti-HA-HRP; 50% binding concentration (Kd)
Entries and their Kd

binder	Kd
SAIT-ANG-2-AB-8-A5 (scFv form) (scFv, V domains shown, scFv from a phage display library) VH: EVQLLESGGGLVQPGGSLRLSCAASGFTFSDYYMSWVRQAPGKGLEWVSGIYPSGGSTYYADSVKGRFTISRDNSKNTLYLQMNSLRAEDTAVYYCARDPSTLTYAGFDYWGQGTLVTVSS VL: QSVLTQPPSASGTPGQRVTISCSGSSSNIGNNYVTWYQQLPGTAPKLLIYADSHRPSGVPDRFSGSKSGTSASLAISGLRSEDEADYYCATWDYSLSGYVFGGGTKLTVLG	11.7 nM

Returns the measured Kd for the input binder. Input: SAIT-ANG-2-AB-7-C9 (scFv form) (scFv, V domains shown, scFv from a phage display library) VH: EVQLLESGGGLVQPGGSLRLSCAASGFTFSNYAMSWVRQAPGKGLEWVSAISSGGGNIYYADSVKGRFTISRDNSKNTLYLQMNSLRAEDTAVYYCAKSGIQPSPPSMSSAYAMDVWGQGTLVTVSS VL: QSVLTQPPSASGTPGQRVTISCSGSSSNIGNNDVYWYQQLPGTAPKLLIYANSHRPSGVPDRFSGSKSGTSASLAISGLRSEDEADYYCGTWDYSLSGYVFGGGTKLTVLG
8.7 nM

SAIT-ANG-2-AB-4-F5 (scFv form) (scFv, V domains shown, scFv from a phage display library) VH: EVQLLESGGGLVQPGGSLRLSCAASGFTFSDYDMSWVRQAPGKGLEWVSSISHGDSNKYYADSVKGRFTISRDNSKNTLYLQMNSLRAEDTAVYYCAKSSGIQESPPTYYYYGMDVWGQGTLVTVSS VL: QSVLTQPPSASGTPGQRVTISCSGSSSNIGSNAVNWYQQLPGTAPKLLIYADSNRPSGVPDRFSGSKSGTSASLAISGLRSEDEADYYCGSWDYSLSGYVFGGGTKLTVLG , same question.
23.8 nM
